Target: Pro-neuregulin-1, membrane-bound isoform (Homo sapiens)
Experiment: NRG1 binders on small-molecule microarrays, primary screen, psychiatric disease protein project, biochemical, small-molecule microarray, fluorescence 635/667 (AID 1075);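 further: score combines 667 nm spot fluorescence with signal to noise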
Details: NRG1 binding, 635 nm fluorescence, higher = more signal
Kindly state composite z-score for each of the entries shown.
Answers are plain numbers.

Example results:
molecule	target	composite z-score
O=C1C[C@@H](O)[C@@H](O)[C@@H]2[C@@H]3C(=O)N(Cc4ccc5c(c4)OCO5)C(=O)[C@@H]3CC[C@H]12	Pro-neuregulin-1, membrane-bound isoform (Homo sapiens)	0.229
COC(=O)CC=C[C@@H](C)[C@@H](C=NOC[C@@H](O)[C@H]1O[C@@H]2OC(C)(C)O[C@@H]2[C@H]1O)NS(=O)(=O)c1ccc(C)cc1	Pro-neuregulin-1, membrane-bound isoform (Homo sapiens)	-0.0399
CC1O[C@H]2C3=C(C(=O)[C@@H]4O[C@@H]4[C@H]3O)[C@@H]1C1[C@@H](C)OC=C3[C@H](O)C4O[C@@H]4C(=NOCc4ccccc4)[C@]312 (some centres undefined)	Pro-neuregulin-1, membrane-bound isoform (Homo sapiens)	-0.505
COc1ccc(COC(=O)NN=C2C[C@@H](O)[C@@H](O)[C@@H]3[C@@H]4C(=O)N(Cc5ccccc5)C(=O)[C@@H]4CC[C@H]23)cc1	Pro-neuregulin-1, membrane-bound isoform (Homo sapiens)	-0.318
CC(C)=CCCC(C)=CCON=C1C[C@@H](O)[C@@H](O)[C@@H]2[C@@H]3C(=O)N(Cc4ccccc4)C(=O)[C@@H]3CC[C@@H]12	Pro-neuregulin-1, membrane-bound isoform (Homo sapiens)	0.34
C=CC[C@@H]1C=C[C@H](ON=C2[C@H]3CCn4c(=O)n(-c5ccccc5)c(=O)n4[C@H]3[C@H](O)[C@@H]3O[C@H]23)[C@@H](CO)O1	Pro-neuregulin-1, membrane-bound isoform (Homo sapiens)	0.19

Need composite z-score for each of these molecules.
1. COC(=O)[C@@H]1CC[C@@H](C)[C@H](c2ccc(Br)cc2)N1
2. C[C@H]1COC(=O)[C@@H]2CCCN2C(=O)[C@@H](C)COC(=O)[C@H](Cc2ccccc2)NC1=O

-0.303
-0.147

Dear colleague, could you send me composite z-score for each of the items below? Thanks.
1. CC(=O)OC[C@H]1O[C@H](CC=NO[C@H](C)c2cn([C@H](CO)Cc3ccccc3)nn2)C=C[C@@H]1OC(C)=O
2. O=C1[C@H]2[C@H]3[C@H](O)[C@H](O)CC(=NOCc4ccccc4)[C@@H]3CC[C@H]2C(=O)N1C[C@@H]1CCCO1
3. CCOC(=O)[C@H](Cc1ccccc1)NC(=O)CCC1CC(OC(=O)NCc2ccc3c(c2)OCO3)CC2(CCCC(COC(=O)NCCC(C)C)O2)O1 (some centres undefined)
4. COC(=O)[C@H](C)NC(=O)CCC1CC(OC(=O)NCc2ccc3c(c2)OCO3)CC2(CCCC(COC(=O)NCc3cccc(C(F)(F)F)c3)O2)O1 (some centres undefined)
5. C[C@@H]1C=CCC(=O)OC[C@H]2O[C@@H](C=C[C@@H]2O)[C@H](C)C=CCC(=O)OC1
6. C#CCCCON=C1C[C@@H](O)[C@@H](O)[C@@H]2[C@@H]3C(=O)N(c4cccc(Oc5ccccc5)c4)C(=O)[C@@H]3CC[C@H]12

1: 1.33; 2: 0.0461; 3: 1.41; 4: 0.151; 5: -1.03; 6: 0.248

* * *

Assay: MM1S cell viability effects, profiling panel, calcein-AM fluorescence, 48 h, basal (AID 1165);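 further: viability of MM1S multiple myeloma cells under basal unstimulated conditions; test concentration not given here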
Conditions: higher = more signal
Think of -0.5 as a floor: if z-score stands on it or above, it is label 1; beneath it, label 0.

compound	class_label
CCOC(=O)CCN1C(=O)[C@H]2[C@H]3[C@H](O)[C@H](O)CC(=NOCc4ccccc4)[C@H]3CC[C@H]2C1=O	label 1
CC(C)CON=C1C[C@@H](O)[C@@H](O)[C@@H]2[C@@H]3C(=O)N(C4CCCCC4)C(=O)[C@@H]3CC[C@H]12	label 1
Cc1ccc(S(=O)(=O)N[C@H]2COC(=O)CC=C[C@@H](C)COC(=O)CC=C[C@@H]2C)cc1	label 1
COC(=O)CC=C[C@@H](C)[C@@H](C=NO[C@@H](C)c1cc(-c2c(C)cc(C)cc2C)no1)NS(=O)(=O)c1ccc(C)cc1	label 1
CC(C)[C@@H](OCc1ccccc1)[C@H](C)C=NOC[C@@H](O)COCc1ccco1	label 0
CCOC(=O)[C@H](Cc1ccccc1)NC(=O)CCC1CC(OC(=O)NCc2cccc3ccccc23)CC2(CCCC(COC(=O)NCC(c3ccccc3)c3ccccc3)O2)O1 (stereo partly specified)	label 0
CO[C@H]1COC(=O)[C@@H](C)COC(=O)[C@H](COCc2ccccc2)NC(=O)CC=C[C@H]1C	label 1
CO[C@@H]1COC(=O)[C@@H](C)COC(=O)[C@@H](C)NC(=O)CC=C[C@@H]1C	label 0

Threshold query (z-score >= -0.5) on O=C1CCCC=C1C(O)CCOC(c1ccccc1)(c1ccccc1)c1ccccc1 (stereo unspecified)
label 0

Is reported z-score greater than or equal to -0.5 here: CC1O[C@H]2C3=C(C(=O)[C@@H]4O[C@@H]4[C@H]3O)[C@@H]1C1[C@@H](C)OC=C3[C@H](O)C4O[C@@H]4C(=NOCc4ccccc4)[C@]312 (stereo partly specified)
label 0

hey, is z-score for this one >= -0.5? CCOC(=O)[C@H](CC(C)C)NC(=O)CCC1CC(OC(=O)NCc2cccc3ccccc23)CC2(CCCC(COC(=O)NCc3ccncc3)O2)O1 (stereo partly specified)
label 0

I'd appreciate it if you could say whether CC(=O)OC[C@H]1OC(ON=CC[C@@H]2C=C[C@H](OC(C)=O)[C@@H](COC(C)=O)O2)[C@H](OC(C)=O)[C@@H](OC(C)=O)[C@@H]1OC(C)=O (stereo partly specified) has z-score at least equal to -0.5.
label 1

Determine whether measured z-score meets or exceeds -0.5 for "CCOC(=O)NN=C1C[C@@H](O)[C@@H](O)[C@@H]2[C@@H]3C(=O)N([C@@H](C)c4ccccc4)C(=O)[C@@H]3CC[C@H]12"
label 1

Does the reported z-score for "CC(=O)OC[C@H]1O[C@H](C#Cc2ccccc2)C=C[C@@H]1OC(C)=O" fall at or above the -0.5 mark?
label 0

* * *

Test: cell viability in Huh7 cells, primary screen, cytotoxicity control for HCV replication inhibitor project, CellTiter-Glo luminescence, basal, 48 h (AID 1143);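 further: Huh7 hepatoma cells carrying a hepatitis C replication reporter with no stimulus; test concentration not given here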
Details: Huh7 HCV replicon, higher = more signal, called active from +8 up or from −8 down
assay_readout: z-score
One number for each entry.

Study these solved cases before continuing.
compound	z-score
CCCCC#C[C@@H]1C=C[C@H](Oc2cc(OC)c(OC)c(OC)c2)[C@@H](COC(=O)OCC)O1	-0.721
CCOC(=O)[C@H](CC(C)C)NC(=O)CCC1CC(OC(=O)NCc2cccc3ccccc23)CC2(CCCC(COC(=O)NCCOC)O2)O1 (stereo partly specified)	-1.3
CCOC(=O)[C@H](CC(C)C)NC(=O)CCC1CC(OC(=O)NCc2ccc3c(c2)OCO3)CC2(CCCC(COC(=O)NCC(c3ccccc3)c3ccccc3)O2)O1 (stereo partly specified)	-0.356
C=Cc1ccc([C@H]2N[C@H](C(=O)O)CC[C@@H]2C)cc1	0.369
CCOC(=O)[C@H](Cc1ccccc1)NC(=O)CCC1CC(OC(=O)NCCc2ccc(F)cc2)CC2(CCCC(COC(=O)NCCOC)O2)O1 (stereo partly specified)	-0.326

For each entry beneath this line, provide reported z-score.
1. CCCNC(=O)OC[C@H]1O[C@H](CCON=C(C)C)C=C[C@@H]1Oc1ccc(OC)cc1
2. COC(=O)CC=C[C@@H](C)[C@@H](C=NO[C@@H](C)c1cn([C@H](CO)Cc2ccccc2)nn1)NS(=O)(=O)c1ccc(C)cc1
3. COc1ccc(O[C@H]2C=C[C@@H](c3ccccc3)O[C@@H]2COC(=O)CCC(C)=NOC(C)CN2CCCc3nc(C)c(C)cc32)cc1 (stereo partly specified)
4. CC1O[C@H]2C3=C(C(=O)[C@@H]4O[C@@H]4[C@H]3O)[C@@H]1C1[C@@H](C)OC=C3[C@H](O)C4O[C@@H]4C(=NOCc4ccccc4)[C@]312 (stereo partly specified)
5. CO[C@H]1COC(=O)CCC[C@@H](C)[C@H](OC)COC(=O)[C@@H](C)NC(=O)CC=C[C@@H]1C
6. COc1ccc(O[C@H]2C=C[C@@H](c3ccccc3)O[C@@H]2CON=C(C)C)cc1
7. O=C1[C@H]2[C@H]3[C@H](O)[C@H](O)CC(=NOCc4ccccc4)[C@H]3CC[C@H]2C(=O)N1Cc1ccc2c(c1)OCO2

0.599
-0.35
-0.61
-3.64
-2.74
0.361
-1.96
